Tested on: human normal hepatocytes HL-7702
Assay: MTT test on human normal hepatocytes HL-7702
Conditions: Homo sapiens, L02, 48 h, read-out: IC50 HL-7702
Measurement name: IC50 (µM)
// units = µM; emit number, no label

COc1cc([C@@H]2c3cc4c(cc3[C@@H](O[C@@H]3O[C@@H]5CO[C@@H](C)O[C@H]5[C@H](O)[C@H]3O)[C@H]3COC(=O)[C@H]23)OCO4)cc(OC)c1O [Etoposide, etoposide, reference compound] ... 28.8

# ---- query compound ----
Exercise: Could you tell me which IC50 is on file for COc1cc([C@@H]2c3cc4c(cc3[C@H](O)[C@H]3COC(=O)[C@H]23)OCO4)cc(OC)c1OC [Podophyllotoxin, podophyllotoxin] ?
Solution: 67.2
